target entity: PHKG2 (Homo sapiens)
Construct: purchased DiscoverX Corp. (ScanMAX Kinase analysis panel, service)
Sequence (P15735 whole entry): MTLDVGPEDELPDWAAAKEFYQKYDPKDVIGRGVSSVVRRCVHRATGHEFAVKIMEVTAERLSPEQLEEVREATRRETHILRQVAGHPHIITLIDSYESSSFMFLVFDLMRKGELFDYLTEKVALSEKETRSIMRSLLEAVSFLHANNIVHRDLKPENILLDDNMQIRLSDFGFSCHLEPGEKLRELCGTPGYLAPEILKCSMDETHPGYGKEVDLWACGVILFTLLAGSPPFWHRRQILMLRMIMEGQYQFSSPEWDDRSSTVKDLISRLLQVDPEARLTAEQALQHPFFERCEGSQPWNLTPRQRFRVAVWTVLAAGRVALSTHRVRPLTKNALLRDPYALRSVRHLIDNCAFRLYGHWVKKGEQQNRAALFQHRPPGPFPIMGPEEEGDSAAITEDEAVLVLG
procedure text: ScanMAX Kinase analysis panel, PHKG2
Format: binding
settings: 1 μM in DMSO; <35% considered inhibitory; read-out: percent control (% control), PHKG2
quantity measured: remaining binding at 1 µM (%)

Some molecules with recorded remaining binding at 1 µM:
C=CCNc1nc(Nc2ccc(S(=O)(=O)N3CCC(N4CCOCC4)CC3)cc2OC)nc2[nH]cc(C#N)c12 [Example 361] ... 3
O=C(c1ccc(Nc2nc(C3CC3)c3c(C(F)(F)F)c[nH]c3n2)c2c1OCCO2)N1CCC(N2CCOCC2)CC1 [Example 228] ... 5.5
CCNc1nc(Nc2ccc(S(=O)(=O)N3CCC(N4CCOCC4)CC3)cc2OC)nc2[nH]cc(C(F)(F)F)c12 [Example 158, 2,2,2-trifluoroacetate] ... 51
CNc1nc(Nc2ccc(P3(=O)CCN(C4CC4)CC3)cc2OC)nc2[nH]cc(C(F)(F)F)c12 [Example 411] ... 2.5
CNc1nc(Nc2ccc(S(=O)(=O)N3CCC(N4CCOCC4)CC3)cc2OC)nc2[nH]cc(C(F)(F)F)c12 [Example 157, 2,2,2-trifluoroacetate] ... 5.8

[A] CNc1nc(Nc2ccc(C(=O)N3CCC(N4CCOCC4)CC3)c3c2OCCO3)nc2[nH]cc(C(F)(F)F)c12 [Example 238]
[B] CCCNc1nc(Nc2ccc(S(=O)(=O)N3CCC(N4CCOCC4)CC3)cc2OC)nc2[nH]cc(C(F)(F)F)c12 [Example 161]
Request: Select the item whose remaining binding at 1 µM value is smaller, choosing between A and B . Lab log: write the label of the selected item as the result.
Result: A
(A: 2.2%, B: 21%)
